Data origin, for the record: patent US7442805B2

Read-out record for human PAI-1 (Homo sapiens): pIC50
pIC50 is a log-scale quantity: -log10 of the concentration expressed in molar.

Recorded pIC50, per entry:
CC(C)(C)c1ccc(S(=O)(=O)Nc2ccc3[nH]c(C(=O)O)c(-c4ccccc4)c3c2)cc1 4.55
O=C(O)c1c(-c2ccccc2)c2cc(NS(=O)(=O)c3ccc(OC(F)(F)F)cc3)ccc2n1Cc1ccccc1 5.08
CC(C)(C)c1ccc(S(=O)(=O)Nc2ccc3c(c2)c(-c2ccccc2)c(C(=O)O)n3Cc2ccccc2)cc1 4.54

Problem: Kindly state the measured pIC50 obtained for `O=C(O)c1c(-c2ccccc2)c2cc(NS(=O)(=O)c3ccc(-c4ccccc4)cc3)ccc2n1Cc1ccccc1` with human PAI-1 (Homo sapiens).
Sequence (P05121 24-402): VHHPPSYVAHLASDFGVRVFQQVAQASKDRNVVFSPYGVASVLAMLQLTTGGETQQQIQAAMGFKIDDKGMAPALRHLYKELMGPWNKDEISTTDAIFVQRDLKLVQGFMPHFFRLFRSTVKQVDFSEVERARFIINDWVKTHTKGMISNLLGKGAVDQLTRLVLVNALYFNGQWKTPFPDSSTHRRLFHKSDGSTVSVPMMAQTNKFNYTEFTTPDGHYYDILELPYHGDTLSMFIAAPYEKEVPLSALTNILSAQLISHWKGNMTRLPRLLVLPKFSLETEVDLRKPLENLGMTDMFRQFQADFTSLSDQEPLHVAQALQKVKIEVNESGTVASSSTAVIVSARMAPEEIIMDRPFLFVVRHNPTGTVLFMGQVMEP
Solution: 4.64

###

- targetOrSystem: recombinant human plasminogen activator inhibitor-1 (PAI-1) (Homo sapiens, UniProt P05121)
- Construct: purchased Molecular Innovations, Royal Oak, Mich
- experimentNotes: Primary screen for the PAI-1 inhibition (chromogenic tPA activity assay)
- Assay type: biochemical
- studyConditions: 25 μM test compound; pH 6.6; 140 nM PAI-1, 70 nM tPA
quantity: inhibition at 25 µM (%)
Kindly answer with a numeric value in %, unit omitted.

Problem: Sample Cn1c(C(=O)O)c(-c2ccccc2)c2cc(NS(=O)(=O)c3ccc(C(C)(C)C)cc3)ccc21 [Example 6] — what was its inhibition at 25 µM?
Solution: 46

Problem: I am curious: what inhibition at 25 µM value has been reported for CS(=O)(=O)Nc1ccc2c(c1)c(-c1ccccc1)c(C(=O)O)n2Cc1ccc(-c2ccccc2)cc1 [Example 13] ?
Solution: 62

Problem: // returns reported inhibition at 25 µM for input O=C(O)c1[nH]c2ccc(NS(=O)(=O)c3ccc(OC(F)(F)F)cc3)cc2c1-c1ccccc1 [Example 19]
Solution: 50

###

inhibition at 10 µM values by entry
- targetOrSystem: recombinant human plasminogen activator inhibitor-1 (PAI-1) (Homo sapiens)
- Construct: purchased Molecular Innovations, Royal Oak, Mich
- experimentNotes: Primary screen for the PAI-1 inhibition (chromogenic tPA activity assay)
- Format: biochemical
- studyConditions: 10 μM test compound; pH 6.6; 140 nM PAI-1, 70 nM tPA
Please state the figure in %; there is no need to write the unit.

Worked set:
molecule	displayUnit	inhibition at 10 µM
O=C(O)c1c(-c2ccccc2)c2cc(NS(=O)(=O)c3ccc(OC(F)(F)F)cc3)ccc2n1Cc1ccccc1 [Example 1]	%	33
CC(C)(C)c1ccc(S(=O)(=O)Nc2ccc3[nH]c(C(=O)O)c(-c4ccccc4)c3c2)cc1 [Example 20]	%	20
CS(=O)(=O)Nc1ccc2c(c1)c(-c1ccccc1)c(C(=O)O)n2C(c1ccccc1)c1ccccc1 [Example 15]	%	10
O=C(O)c1c(-c2ccccc2)c2cc(NS(=O)(=O)c3ccccc3)ccc2n1Cc1ccc(-c2ccccc2)cc1 [Example 14]	%	77
Cn1c(C(=O)N[C@@H](Cc2ccccc2)C(=O)O)c(-c2ccccc2)c2cc(NS(=O)(=O)c3ccc(-c4ccccc4)cc3)ccc21 [Example 9]	%	8

Problem: Entry CC(C)(C)c1ccc(S(=O)(=O)Nc2ccc3c(c2)c(-c2ccccc2)c(C(=O)O)n3Cc2ccccc2)cc1 [Example 3] has what inhibition at 10 µM?
Solution: 41

Problem: What measured inhibition at 10 µM goes with CC(C)C[C@H](NC(=O)c1c(-c2ccccc2)c2cc(NS(=O)(=O)c3ccc(C(C)(C)C)cc3)ccc2n1C)C(=O)O [Example 12] ?
Solution: 14

Problem: I have this molecule here, CC(C)(C)c1ccc(-c2c(C(=O)O)n(Cc3ccccc3)c3ccc(NS(=O)(=O)c4ccc(OC(F)(F)F)cc4)cc23)cc1 [Example 17] , and I need its recorded inhibition at 10 µM.
Solution: 43

Problem: I have this molecule here, O=C(O)c1c(-c2ccc3[nH]ccc3c2)c2cc(NS(=O)(=O)c3ccccc3)ccc2n1Cc1ccccc1 [Example 18] , and I need its recorded inhibition at 10 µM.
Solution: 19

Problem: If you can, please state the reported inhibition at 10 µM value of CC(C)C[C@H](NC(=O)c1c(-c2ccccc2)c2cc(NS(=O)(=O)c3ccc(-c4ccccc4)cc3)ccc2n1C)C(=O)O [Example 10] .
Solution: 15

Problem: Give the measured inhibition at 10 µM of CS(=O)(=O)Nc1ccc2c(c1)c(-c1ccccc1)c(C(=O)O)n2Cc1ccc(-c2ccccc2)cc1 [Example 13] .
Solution: 24

Problem: So what does the record say about inhibition at 10 µM for O=C(O)c1[nH]c2ccc(NS(=O)(=O)c3ccc(OC(F)(F)F)cc3)cc2c1-c1ccccc1 [Example 19] ?
Solution: 12

Problem: Name the recorded inhibition at 10 µM for O=C(O)c1c(-c2ccccc2)c2cc(NS(=O)(=O)c3ccccc3)ccc2n1C(c1ccccc1)c1ccccc1 [Example 16] .
Solution: 68

Problem: Requested field: inhibition at 10 µM. Item: O=C(O)c1[nH]c2ccc(NS(=O)(=O)c3ccc(-c4ccccc4)cc3)cc2c1-c1ccccc1 [Example 21]
Solution: 29

###

- targetOrSystem: recombinant human plasminogen activator inhibitor-1 (PAI-1) (Homo sapiens, UniProt P05121)
- Construct: purchased Molecular Innovations, Royal Oak, Mich
- experimentNotes: Primary screen for the PAI-1 inhibition (chromogenic tPA activity assay)
- Assay type: biochemical
- studyConditions: 10 μM test compound; pH 6.6; 140 nM PAI-1, 70 nM tPA
quantity: inhibition at 10 µM (%)
Your answer should be a plain number; it is taken to be in %.

Reference set, count: 4
CC(C)C[C@H](NC(=O)c1c(-c2ccccc2)c2cc(NS(=O)(=O)c3ccc(OC(F)(F)F)cc3)ccc2n1C)C(=O)O 18
Cn1c(C(=O)O)c(-c2ccccc2)c2cc(NS(=O)(=O)c3ccc(-c4ccccc4)cc3)ccc21 11
O=C(O)c1c(-c2ccccc2)c2cc(NS(=O)(=O)c3cccc4cccnc34)ccc2n1Cc1ccccc1 8
O=C(O)c1c(-c2ccccc2)c2cc(NS(=O)(=O)c3ccc(-c4ccccc4)cc3)ccc2n1Cc1ccccc1 44

// moving on: another record for inhibition at 10 µM
Problem: For the molecule `Cn1c(C(=O)N[C@@H](Cc2ccccc2)C(=O)O)c(-c2ccccc2)c2cc(NS(=O)(=O)c3ccc(C(C)(C)C)cc3)ccc21` , what inhibition at 10 µM is on record?
Solution: 15

###

The compounds listed here are annotated with their inhibition at 25 µM.
- targetOrSystem: recombinant human plasminogen activator inhibitor-1 (PAI-1) (Homo sapiens, UniProt P05121)
- Construct: purchased Molecular Innovations, Royal Oak, Mich
- experimentNotes: Primary screen for the PAI-1 inhibition (chromogenic tPA activity assay)
- Type: biochemical
- studyConditions: 25 μM test compound; pH 6.6; 140 nM PAI-1, 70 nM tPA
The reply should be a number in %, with the unit left off.

These solved cases illustrate the format of a correct answer.
compound	displayUnit	quantitativeReadout
CC(C)C[C@H](NC(=O)c1c(-c2ccccc2)c2cc(NS(=O)(=O)c3ccc(C(C)(C)C)cc3)ccc2n1C)C(=O)O [Example 12]	%	64
O=C(O)c1c(-c2ccccc2)c2cc(NS(=O)(=O)c3cccc4cccnc34)ccc2n1Cc1ccccc1 [Example 2]	%	43
Cn1c(C(=O)O)c(-c2ccccc2)c2cc(NS(=O)(=O)c3ccc(-c4ccccc4)cc3)ccc21 [Example 7]	%	68

Consider now this further compound.
Problem: # query: inhibition at 25 µM | item Cn1c(C(=O)N[C@@H](Cc2ccccc2)C(=O)O)c(-c2ccccc2)c2cc(NS(=O)(=O)c3ccc(-c4ccccc4)cc3)ccc21 [Example 9] | system: recombinant human plasminogen activator inhibitor-1 (PAI-1) (Homo sapiens, UniProt P05121)
Solution: 73

###

Below, each of the compounds is paired with its reported inhibition at 25 µM value.
- targetOrSystem: recombinant human plasminogen activator inhibitor-1 (PAI-1) (Homo sapiens)
- Construct: purchased Molecular Innovations, Royal Oak, Mich
- experimentNotes: Primary screen for the PAI-1 inhibition (chromogenic tPA activity assay)
- Format: biochemical
- studyConditions: 25 μM test compound; pH 6.6; 140 nM PAI-1, 70 nM tPA
- Procedure: Primary Screen for the PAI-1 Inhibition Test compounds are dissolved in DMSO at a final concentration of 10 mM, then diluted 100× in physiologic buffer. […] Following the second incubation, Spectrozyme-tPA (American Diagnostica, Greenwich, Conn.), a chromogenic substrate for tPA, is added and absorbance read at 405 nm at 0 and 60 minutes. […]
Just the number in %, nothing appended.

Problem: GET /values?readout=inhibition at 25 µM&item= `O=C(O)c1c(-c2ccccc2)c2cc(NS(=O)(=O)c3ccccc3)ccc2n1Cc1ccc(-c2ccccc2)cc1`
Solution: 87

###

- targetOrSystem: recombinant human plasminogen activator inhibitor-1 (PAI-1) (Homo sapiens, UniProt P05121)
- Construct: purchased Molecular Innovations, Royal Oak, Mich
- experimentNotes: Primary screen for the PAI-1 inhibition (chromogenic tPA activity assay)
- Format: biochemical
- studyConditions: 25 μM test compound; pH 6.6; 140 nM PAI-1, 70 nM tPA
// reported inhibition at 25 µM for each item listed
Please state the figure in %; there is no need to write the unit.

CC(C)(C)c1ccc(S(=O)(=O)Nc2ccc3[nH]c(C(=O)O)c(-c4ccccc4)c3c2)cc1 81

Problem: Write down the reported inhibition at 25 µM of `Cn1c(C(=O)O)c(-c2ccccc2)c2cc(NS(=O)(=O)c3ccc(OC(F)(F)F)cc3)ccc21` , test system: recombinant human plasminogen activator inhibitor-1 (PAI-1) (Homo sapiens, UniProt P05121).
Solution: 19
